target_or_system: Cytochrome P450 2C9 (Homo sapiens)
experimental_protocol: blockers of cytochrome P450 2C9 activity – biochemical, luminescence, ADME assay, primary screen (AID 777)
reported_conditions: CYP2C9 Supersomes, luciferin-H conversion, at 5 µM
The whole screen tested about 96,000 compounds, of which about 19,000 (20%) were called active.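 How the source made its calls: active means blocking of liver enzyme CYP2C9 beyond about 50% at 5 µM (limit read from the data); inactive means the rest.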 A selection follows.
Outcome (select one): active, inactive

These solved cases illustrate the format of a correct answer.
>  <molecule>
COc1ccc(S(=O)(=O)N2CCOCC2)cc1C(=O)Nc1nc2ccccc2s1

>  <class>
inactive

$$$$
>  <molecule>
COC(=O)c1ccc(C2NC(=O)NC(C)=C2C(=O)N(C)C)cc1 (configuration not stated)

>  <class>
inactive

$$$$
>  <molecule>
Cc1cc(S(=O)(=O)NC2CCCCC2)ccc1OCC(=O)NCc1cccnc1

>  <class>
active

$$$$
>  <molecule>
CCOC(=O)C1=C(C)Nc2sc(C(=O)c3ccc(Br)cc3)c(N)c2C1c1ccc(C(=O)OC)cc1 (configuration not stated)

>  <class>
active

$$$$
>  <molecule>
O=C(OC1CCCCC1=O)c1cccc(S(=O)(=O)NCc2ccccc2)c1 (configuration not stated)

>  <class>
inactive

$$$$
>  <molecule>
CCOc1cc2c(cc1OCC)C(C(=O)O)C(c1ccc(OC)c(O)c1)N(C)C2=O (configuration not stated)

>  <class>
inactive

$$$$
>  <molecule>
Cn1c(=O)c(=O)n(C)c2cc(S(=O)(=O)NCCc3ccccc3)ccc21

>  <class>
inactive

$$$$
>  <molecule>
CC(=O)N(CC1CCCO1)C1(C(=O)NC2CCCC2)CCCCC1 (configuration not stated)

>  <class>
inactive

$$$$
>  <molecule>
Cc1ccc(-n2ncc3c(=O)[nH]cnc32)c(C)c1

>  <class>
inactive

$$$$
>  <molecule>
CCCC1CC(C)(C(=O)Cn2[nH]c(=O)ccc2=O)OC1=O (configuration not stated)

>  <class>
inactive

$$$$

Qu. Returns: the outcome recorded for O=C(CN(CC1CCCO1)C(=O)CNS(=O)(=O)c1ccccc1)NCc1ccccc1 (configuration not stated) in this assay.
Ans. inactive

Qu. Tell me the assay call for CCOCCCNC(=O)C(NC(=O)c1ccc(=O)[nH]c1)c1ccc(Cl)cc1 (configuration not stated) please.
Ans. inactive

Qu. Which outcome was entered for the molecule `O=C(c1ccc2c(c1)OCCO2)C1CCN(S(=O)(=O)c2cccc(F)c2)CC1` in this test?
Ans. inactive

Qu. Fill in: this test's call for `COc1ccc(C)cc1N(C)C(=O)c1coc(=O)c2ccccc12` is ___
Ans. inactive

Qu. Give the logged outcome of this assay for the following molecule: `O=C(CCc1ccccc1)NCc1cccnc1`
Ans. inactive

Qu. What classification did `O=C(CN1CCOCC1)Nc1ccc(NC(=O)CN2CCOCC2)c(Cl)c1` end up with in this test?
Ans. inactive

Qu. Write down the call the test reported for this molecule. Item: `Cc1cc(Cl)c(S(=O)(=O)NCc2cccnc2)cc1OCC(N)=O`
Ans. inactive

Qu. Call for entry `COc1ccccc1N(C)S(=O)(=O)c1ccc(C(=O)N2CCC(C(N)=O)CC2)cc1` :
Ans. active

Qu. Call for entry `Cc1cccc(CCNS(=O)(=O)c2ccc(S(=O)(=O)NC3CCCC3)cc2)c1` :
Ans. active

Qu. Field: outcome | Entry: `COc1cccc(N2CCN(C(=O)Nc3ccc4c(c3)NC(=O)CO4)CC2)c1`
Ans. inactive

Qu. Per the assay record, what outcome was assigned to `O=C(Nc1nc2cc3c(cc2s1)OCCO3)c1cccc(S(=O)(=O)N2CCOCC2)c1` ?
Ans. active

Qu. Name the outcome recorded for `CCOC(=O)N1CCN(C(=O)CN(c2ccc(C)c(C)c2)S(=O)(=O)c2ccccc2)CC1` in the assay.
Ans. active

---

target_or_system: Cytochrome P450 2C9 (Homo sapiens) (UniProt P11712)
Sequence (P11712 whole entry, looked up): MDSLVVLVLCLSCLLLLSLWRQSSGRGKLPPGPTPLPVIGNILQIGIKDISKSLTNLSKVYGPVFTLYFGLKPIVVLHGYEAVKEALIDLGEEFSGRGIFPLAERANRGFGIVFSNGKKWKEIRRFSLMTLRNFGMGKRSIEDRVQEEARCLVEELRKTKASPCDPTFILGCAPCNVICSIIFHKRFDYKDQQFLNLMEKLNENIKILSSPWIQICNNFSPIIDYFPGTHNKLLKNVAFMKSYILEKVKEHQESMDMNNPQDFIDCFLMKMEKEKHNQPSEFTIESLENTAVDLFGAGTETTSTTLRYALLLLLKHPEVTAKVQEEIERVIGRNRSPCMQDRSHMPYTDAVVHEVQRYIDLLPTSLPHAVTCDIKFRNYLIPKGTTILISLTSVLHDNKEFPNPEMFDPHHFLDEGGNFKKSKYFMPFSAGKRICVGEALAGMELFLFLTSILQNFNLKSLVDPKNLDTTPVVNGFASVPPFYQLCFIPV
experimental_protocol: blockers of cytochrome P450 2C9 activity – biochemical, luminescence, ADME assay, primary screen (AID 777)
reported_conditions: CYP2C9 Supersomes, luciferin-H conversion, at 5 µM
The campaign covered roughly 96,000 compounds. About 19,000 (20%) were called active.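 The calls were made as follows: active = blocking of liver enzyme CYP2C9 beyond about 50% at 5 µM (limit read from the data); inactive = the rest.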 The list is a sample of the results.
Your answer must be one of the following: active, inactive

The following compounds have reported results that may help.
>  <substance_smiles>
COc1ccccc1-c1cc(C(=O)NCCCn2ccnc2)no1

>  <target_or_system>
Cytochrome P450 2C9 (Homo sapiens) (UniProt P11712)

>  <class>
inactive

$$$$
>  <substance_smiles>
CCCCOCCCNC(=O)c1ccccc1OCC

>  <target_or_system>
Cytochrome P450 2C9 (Homo sapiens) (UniProt P11712)

>  <class>
inactive

$$$$
>  <substance_smiles>
NS(=O)(=O)c1ccc(CCNC(=O)Nc2ccc(Cl)cc2)cc1

>  <target_or_system>
Cytochrome P450 2C9 (Homo sapiens) (UniProt P11712)

>  <class>
inactive

$$$$

Qu. Which outcome was entered for the compound `O=C(CNC(=O)c1ccccc1)NCC(=O)OCc1ccc(Cl)cc1` in this test?
Ans. inactive

Qu. Recorded call for `O=C(NCCCn1ccnc1)Nc1ccc(Cl)cc1Cl` ?
Ans. active

Qu. Just curious, what result did `Cc1ncn(C23CC4CC(CC(O)(C4)C2)C3)n1` get here?
Ans. inactive

---

This section presents compounds with their documented inhibition values.
target_or_system: Cytochrome P450 2C9 (Homo sapiens) (UniProt P11712)
experimental_protocol: blockers of cytochrome P450 2C9 activity – biochemical, luminescence, ADME assay, primary screen (AID 777)
reported_conditions: CYP2C9 Supersomes, luciferin-H conversion, at 5 µM, active compounds read high
Among all 96,000 compounds or so, about 19,000 (20%) were called active. The list is a sample of the results.
Number only, in %; omit the unit.

// known answers, use as guide
>  <compound>
CC1=NCCN1S(=O)(=O)c1ccc(Br)c(C)c1

>  <inhibition, %>
-80.5

$$$$
>  <compound>
O=C(OCc1cc2ccccc2[nH]c1=O)c1cccnc1

>  <inhibition, %>
12.7

$$$$
>  <compound>
Cc1ccccc1N1CC(c2nc3ccccc3[nH]2)CC1=O (stereo not drawn)

>  <inhibition, %>
29.8

$$$$
>  <compound>
CC(=O)c1cc(C#N)c(SCC(=O)C(C)(C)C)nc1C

>  <inhibition, %>
22.5

$$$$
>  <compound>
COc1ccccc1C1C2=C(COC2=O)Nc2cc3c(cc21)OCO3 (stereo not drawn)

>  <inhibition, %>
28.2

$$$$
>  <compound>
CCOC(=O)c1[nH]c(C)c(C(=O)OCC(=O)N2c3ccccc3CC2C)c1C (stereo not drawn)

>  <inhibition, %>
10.7

$$$$
>  <compound>
CCOC(=O)Nc1ccc2c(c1)N(C(=O)CN1CCN3CCCC3C1)c1ccccc1CC2 (stereo not drawn)

>  <inhibition, %>
0.1

$$$$
>  <compound>
COc1ccccc1Nc1ncc(C(C)=O)c(C)n1

>  <inhibition, %>
18.7

$$$$

Qu. Give recorded inhibition with Cytochrome P450 2C9 (Homo sapiens) (UniProt P11712) for the following compound: `COc1ccc2ccccc2c1CNCc1ccccn1`
Ans. -4.5

Qu. Field: inhibition (Cytochrome P450 2C9 (Homo sapiens) (UniProt P11712)). Entry: `O=C(c1ccco1)N(Cc1nc2ccccc2c(=O)[nH]1)C1CCCC1`
Ans. -20.5

Qu. Provide value of inhibition for this record tested with Cytochrome P450 2C9 (Homo sapiens) (UniProt P11712): Cc1cc(C)c2nc(NC(=O)C3CCCO3)sc2c1 (stereo not drawn)
Ans. 28.3

Qu. Could you share what inhibition was measured for `O=C(C1CCN(S(=O)(=O)c2cnc[nH]2)CC1)N1CCN(Cc2ccc3c(c2)OCO3)CC1` , tested on Cytochrome P450 2C9 (Homo sapiens) (UniProt P11712)?
Ans. 9.3

Qu. Param readout = inhibition; param system = Cytochrome P450 2C9 (Homo sapiens) (UniProt P11712); param query = CCCOc1ccc(N2C(=O)CC(N(CCc3ccc(S(N)(=O)=O)cc3)C(C)=O)C2=O)cc1 (stereo not drawn) ; response: value
Ans. -11.4

Qu. Give recorded inhibition with Cytochrome P450 2C9 (Homo sapiens) (UniProt P11712) for the following compound: `CCCCNC(=O)c1onc(CSc2cccc(OC)c2)c1C(=O)O`
Ans. 82.5

Qu. Missing value: inhibition, Cytochrome P450 2C9 (Homo sapiens) (UniProt P11712), entry CCn1nc(C(=O)OCC(=O)N2c3ccccc3CC2C)c2ccccc2c1=O (stereo not drawn) . Fill in?
Ans. 80.7

Qu. Look up inhibition with Cytochrome P450 2C9 (Homo sapiens) (UniProt P11712) for this compound: Cc1ccc(-c2nnc(C)c(N3CC(C)OC(C)C3)n2)cc1 (stereo not drawn)
Ans. 17.3

Qu. Please state recorded inhibition (tested on Cytochrome P450 2C9 (Homo sapiens) (UniProt P11712)) of COCCOC(=O)C1=C(C)NC(=O)CC1c1cc2c(cc1Br)OCO2 (stereo not drawn)
Ans. 8.2

Qu. Item `Cc1nc2cc(-c3ccc(F)cc3)nn2c(N2CCOCC2)c1C` with Cytochrome P450 2C9 (Homo sapiens) (UniProt P11712) - inhibition?
Ans. 8.9

Qu. Write down the reported inhibition of `COc1ccc(OCC(=O)NN2Cc3ccccc3C2=N)cc1` , test system: Cytochrome P450 2C9 (Homo sapiens) (UniProt P11712).
Ans. 13

Qu. Param readout = inhibition; param system = Cytochrome P450 2C9 (Homo sapiens) (UniProt P11712); param query = `COC(=O)c1c(CCl)noc1C(=O)NC(C)C` ; response: value
Ans. -0.5

Qu. // map COC(=O)c1cc(NC(=O)CC2C(=O)NCCN2C(=O)c2ccc(F)cc2)cc(C(=O)OC)c1 (stereo not drawn) to recorded inhibition (system: Cytochrome P450 2C9 (Homo sapiens) (UniProt P11712))
Ans. 46.6

Qu. Find the measured inhibition: item COc1ccc(NC(=O)/C(Cl)=C(/Cl)S(=O)Cc2ccc(C)cc2)cn1 (stereo not drawn) , target or system Cytochrome P450 2C9 (Homo sapiens) (UniProt P11712).
Ans. 52.9

Qu. Field: inhibition (Cytochrome P450 2C9 (Homo sapiens) (UniProt P11712)). Entry: `C=CCN(c1ccc(C(N)=O)cc1)S(C)(=O)=O`
Ans. -10.7
